target: hcy129.1_CID; construct: 7 mutations compared to the original design; assay: Isothermal titration calorimetry at 25 °C with cortisol, 1% DMSO in all solutions, single-site binding model.; details: read-out: KD (μM), ITC, cortisol
observation_type: Kd (µM)
Numeric answer only, unit µM assumed.

Give me measured Kd, please, for this compound: C[C@]12CCC(=O)C=C1CC[C@@H]1[C@@H]2[C@@H](O)C[C@@]2(C)[C@H]1CC[C@]2(O)C(=O)CO [cortisol, cortisol (HCY)] 0.064

====

biological target: apx1493; construct: N-terminal hexahistidine tag; original design; test: Isothermal titration calorimetry at 25 °C with warfarin or apixaban, 5% DMSO in all solutions, single-site binding model.; details: read-out: KD (μM), ITC, warfarin and apixaban
observation_type: Kd (µM)
Express your answer in µM, writing the number without its unit.

Tell me Kd reported for COc1ccc(-n2nc(C(N)=O)c3c2C(=O)N(c2ccc(N4CCCCC4=O)cc2)CC3)cc1 9.67
